For each record, write down the corresponding Ki.
- target: ITK (Homo sapiens)
- Sequence (Q08881 1-620): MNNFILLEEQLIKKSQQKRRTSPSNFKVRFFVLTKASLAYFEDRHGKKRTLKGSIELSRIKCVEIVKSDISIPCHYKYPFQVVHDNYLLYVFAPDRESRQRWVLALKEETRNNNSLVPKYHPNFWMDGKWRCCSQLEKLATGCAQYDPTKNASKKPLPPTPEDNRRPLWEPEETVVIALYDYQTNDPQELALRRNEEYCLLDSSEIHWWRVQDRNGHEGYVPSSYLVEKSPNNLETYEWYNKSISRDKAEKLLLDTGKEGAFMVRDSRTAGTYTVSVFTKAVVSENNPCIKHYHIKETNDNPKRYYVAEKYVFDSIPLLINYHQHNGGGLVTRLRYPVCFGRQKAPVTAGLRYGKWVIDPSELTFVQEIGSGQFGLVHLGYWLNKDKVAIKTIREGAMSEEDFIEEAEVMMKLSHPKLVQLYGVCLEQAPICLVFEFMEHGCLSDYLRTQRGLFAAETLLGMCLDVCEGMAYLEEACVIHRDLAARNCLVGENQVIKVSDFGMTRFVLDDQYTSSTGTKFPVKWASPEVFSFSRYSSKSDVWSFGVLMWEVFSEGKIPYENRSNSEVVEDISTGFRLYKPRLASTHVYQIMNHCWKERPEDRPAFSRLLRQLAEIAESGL

Answered cases to consult:
CC1(C)CCc2c(C(=O)Nc3cnn(C(c4ccccc4)C4(F)CCNCC4)c3)n[nH]c2C1 (single isomer, unassigned) [Example 44a] : 6 nM
Cn1cc(C(c2ccccc2)n2cc(NC(=O)c3n[nH]c4c3C3CC3CC4)cn2)cn1 (single isomer, unassigned) [Example 35b] : 2 nM

Problem: Item CC(C1CCOCC1)n1cc(NC(=O)c2n[nH]c3c2CCC(C)(C)C3)cn1 (single isomer, unassigned) [Example 78b] : provide Ki
Solution: 6 nM

* * *

Protein target, amino acids: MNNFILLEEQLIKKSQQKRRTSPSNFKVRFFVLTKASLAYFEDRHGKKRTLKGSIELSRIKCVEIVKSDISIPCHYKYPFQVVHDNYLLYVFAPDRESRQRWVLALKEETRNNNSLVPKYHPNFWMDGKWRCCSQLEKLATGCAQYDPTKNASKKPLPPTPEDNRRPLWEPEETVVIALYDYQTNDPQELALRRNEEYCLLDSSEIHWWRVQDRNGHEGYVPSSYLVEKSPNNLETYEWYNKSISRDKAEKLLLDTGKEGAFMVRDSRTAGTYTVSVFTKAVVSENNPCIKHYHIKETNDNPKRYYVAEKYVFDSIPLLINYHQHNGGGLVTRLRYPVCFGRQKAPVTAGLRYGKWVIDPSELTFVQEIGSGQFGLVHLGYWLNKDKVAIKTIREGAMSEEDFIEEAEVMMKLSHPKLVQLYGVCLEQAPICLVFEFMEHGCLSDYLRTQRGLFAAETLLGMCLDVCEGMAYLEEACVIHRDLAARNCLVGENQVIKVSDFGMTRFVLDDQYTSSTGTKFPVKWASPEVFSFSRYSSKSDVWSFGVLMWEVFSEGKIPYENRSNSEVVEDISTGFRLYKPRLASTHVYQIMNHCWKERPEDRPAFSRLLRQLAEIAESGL
measurementName: Ki

Answered cases to consult:
CC1(C)CCc2c(C(=O)Nc3cnn(C(CN4CCOCC4)c4ccccc4)c3)n[nH]c2C1 (single isomer, unassigned) [Example 62a] : 3 nM
CC1(C)CCc2c(C(=O)Nc3cnn(C(c4cccnc4)C4CCCCS4(=O)=O)c3)n[nH]c2C1 (single isomer, unassigned) [Example 144b] : 3 nM
CC1(C)CCc2c(C(=O)Nc3cnn(C(c4ccnc(N)c4)C4CCOCC4)c3)n[nH]c2C1 (single isomer, unassigned) [Example 133a] : 0.4 nM
CC1(C)CCc2c(C(=O)Nc3cnn(C(c4ccccc4)C(C)(C)O)c3)n[nH]c2C1 (single isomer, unassigned) [Example 55b] : 18 nM
CC1(C)Cc2[nH]nc(C(=O)Nc3cnn(Cc4ccccc4)c3)c2CC1C#N (single isomer, unassigned) [Example 90b] : 10 nM

Consider the record given below.
Problem: Item N#Cc1cccc(Cn2cc(NC(=O)c3n[nH]c4c3CC(c3cn[nH]c3)CC4)cn2)c1 (single isomer, unassigned) [Example 2b] : provide Ki
Solution: 34 nM

This collection of values is drawn from patent US20160326142A1.
